assay: Selectivity index, ratio of IC50 for human OKF-6/TERT cells to IC50 for human CAL27 cells after 48 hrs by MTT assay; assay type: toxicity; conditions: OKF-6/TERT cells versus CAL27 cells, read-out: Ratio IC50
observable: selectivity ratio at 48 h

>>> reported_measurement("O=C(OCCCCCCCCCC[P+](c1ccccc1)(c1ccccc1)c1ccccc1)c1ccccc1O")
5.5
>>> reported_measurement("O=C(OCCCCCCCCCC[P+](c1ccccc1)(c1ccccc1)c1ccccc1)c1cccc(O)c1O")
4.7
>>> reported_measurement("O=C(OCCCCCCCCCC[P+](c1ccccc1)(c1ccccc1)c1ccccc1)c1cc(O)c(O)c(O)c1")
3.8
>>> reported_measurement("O=C(OCCCCCCCCCC[P+](c1ccccc1)(c1ccccc1)c1ccccc1)c1cc(O)ccc1O")
6

====

test: Cytotoxicity against human OKF-6/TERT cells assessed as reduction in cell viability measured after 48 hrs by MTT assay; assay type: cell-based; conditions: OKF6, 48 h
pIC50: −log10 of the molar value.
observable: pIC50

>>> reported_measurement("O=C(OCCCCCCCCCC[P+](c1ccccc1)(c1ccccc1)c1ccccc1)c1cccc(O)c1O")
5.12
>>> reported_measurement("O=C(OCCCCCCCCCC[P+](c1ccccc1)(c1ccccc1)c1ccccc1)c1ccccc1O")
4.90
>>> reported_measurement("O=C(OCCCCCCCCCC[P+](c1ccccc1)(c1ccccc1)c1ccccc1)c1cc(O)ccc1O")
4.88
>>> reported_measurement("O=C(OCCCCCCCCCC[P+](c1ccccc1)(c1ccccc1)c1ccccc1)c1cc(O)c(O)c(O)c1")
4.88

====

assay: Selectivity index, ratio of IC50 for human OKF-6/TERT cells to IC50 for human SCC-15 cells after 48 hrs by MTT assay; assay type: toxicity; details: OKF-6/TERT cells versus SCC-15 cells, read-out: Ratio IC50
observable: selectivity ratio at 48 h

>>> reported_measurement("O=C(OCCCCCCCCCC[P+](c1ccccc1)(c1ccccc1)c1ccccc1)c1cc(O)ccc1O")
4.9
>>> reported_measurement("O=C(OCCCCCCCCCC[P+](c1ccccc1)(c1ccccc1)c1ccccc1)c1ccccc1O")
4
>>> reported_measurement("O=C(OCCCCCCCCCC[P+](c1ccccc1)(c1ccccc1)c1ccccc1)c1cc(O)c(O)c(O)c1")
4.4

====

test: Selectivity index, ratio of IC50 for human OKF-6/TERT cells to IC50 for human SCC-15 cells after 48 hrs by MTT assay; format: toxicity; conditions: OKF-6/TERT cells versus SCC-15 cells
observable: selectivity ratio at 48 h

>>> reported_measurement("O=C(OCCCCCCCCCC[P+](c1ccccc1)(c1ccccc1)c1ccccc1)c1cccc(O)c1O")
4.9
